Source listed as PubChem BioAssay (NCI).

- Tested on: SN12C renal
- assay name: NCI tumour cell line growth inhibition, 48 h
attribute measured: TGI

Record excerpt, results attached:
• CCCCCCCCSC(SCCCCCCCC)=C1C(=O)N(c2ccccc2)N=C1C = > 100 µM
• Cc1ccc(C)c(NC(=O)CCc2n[nH]c(=S)o2)c1 = > 100 µM
• CCNC1=CC(=O)c2ncccc2C1=O = 2.78 µM
• Fc1ccccc1C1SCC2=Nc3ccccc3CN21 (stereo not drawn) = > 100 µM
• O=C(Nc1ccc(-c2nc3ccc(NC(=O)c4ccc(Cl)cc4)cc3[nH]2)cc1)c1ccc(Cl)cc1 = 24.3 µM

Please state recorded TGI (tested on SN12C renal) of Cn1cc(/C=C2\C(=O)Nc3cccnc32)c2ccccc21 > 25 µM

Please state recorded TGI (tested on SN12C renal) of CN(c1ccccc1)c1c(-c2ccccc2)c(=O)oc2c1ccc1occc12 > 100 µM

Please state recorded TGI (tested on SN12C renal) of C=C1C[C@]23CC[C@@H]4C(CO)(CO)CC(=O)C[C@]4(C)[C@@H]2C(O)C[C@H]1C3 (stereo partly drawn) > 100 µM

Please state recorded TGI (tested on SN12C renal) of Cc1ccc(Oc2cc(C)ccc2P(=O)(O)O)cc1 > 100 µM

Please state recorded TGI (tested on SN12C renal) of COc1cc(C=NCC(=O)CSC(c2ccccc2)c2ccccc2)cc(OC)c1OC > 100 µM
